# assay system: mu receptor (Rattus norvegicus, UniProt P33535)
# Construct: The brain tissue, rat whole brain minus cerebellum for mu was homogenized; from tissue; host or cells: brain minus cerebellum of male Sprague Dawley rats, homogenate fraction
# Sequence (P33535 whole entry): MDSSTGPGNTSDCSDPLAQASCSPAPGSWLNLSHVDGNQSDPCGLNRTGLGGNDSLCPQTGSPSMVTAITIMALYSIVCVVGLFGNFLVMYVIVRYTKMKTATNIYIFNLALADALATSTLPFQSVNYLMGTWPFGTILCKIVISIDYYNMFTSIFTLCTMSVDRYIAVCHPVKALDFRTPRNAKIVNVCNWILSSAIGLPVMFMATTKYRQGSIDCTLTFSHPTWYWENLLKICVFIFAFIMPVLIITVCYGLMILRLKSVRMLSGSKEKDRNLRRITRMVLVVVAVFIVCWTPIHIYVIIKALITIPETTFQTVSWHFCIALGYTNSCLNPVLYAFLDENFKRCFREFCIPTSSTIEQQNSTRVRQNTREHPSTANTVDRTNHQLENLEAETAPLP
# protocol details: Naloxone [3H] opioid receptor binding assay (mu receptor)
# Design: species or system rat (male Sprague Dawley)
# applied conditions: 20 min, pH 7.4, read-out: % displacement at 100 nM
Recorded inhibition at 0.1 µM, one value per entry.
Give your result in % as a bare value.

Answered examples (2):
compound: C[C@@H]1CN(C[C@H](CC2CCCCC2)NC(=O)CCCC(=O)OCC(N)=O)CC[C@]1(C)c1cccc(O)c1
measure unit: %
inhibition at 0.1 µM: 95
//
compound: C[C@H]1CN(C[C@H](CC2CCCCC2)NC(=O)CCCC(=O)O)CC[C@@]1(C)c1cccc(O)c1 [Example 45D]
measure unit: %
inhibition at 0.1 µM: 94

Moving on to another compound below.
Problem: Specify reported inhibition at 0.1 µM for the compound shown: C[C@@H]1CN(C[C@H](CC2CCCCC2)NC(=O)CCCC(=O)O)CC[C@]1(C)c1cccc(O)c1 [Example 47D]
Solution: 95

====

# assay system: mu receptor (Rattus norvegicus)
# Construct: The brain tissue, rat whole brain minus cerebellum for mu was homogenized; from tissue; host or cells: brain minus cerebellum of male Sprague Dawley rats, homogenate fraction
# protocol details: Naloxone [3H] opioid receptor binding assay (mu receptor)
# Parameters: species or system rat (male Sprague Dawley)
Recorded Ki, one value per entry.
Give your result in nM as a bare value.

molecule: CC(C)CC(CCN1CC[C@@](C)(c2cccc(O)c2)[C@@H](C)C1)NC(=O)CCCC(=O)O (some centres unmarked)
measure unit: nM
Ki: 1.41

Moving on to another molecule below.
Problem: Provide the reported Ki (system: mu receptor (Rattus norvegicus)) for C[C@H]1CN(CCC(CC2CCCCC2)NC(=O)CCC(=O)O)CC[C@@]1(C)c1cccc(O)c1 (some centres unmarked) [Example 1, monohydrate]
Solution: 6.88

====

Recorded ED50, one value per entry.
# assay system: opioid receptor (Mus musculus, UniProt P42866)
# Construct: Five CF-1 male mice (Charles River, Portage, MI); from tissue; host or cells: living CF-1 male mice (whole animal, endogenous receptor)
# Sequence (P42866 whole entry): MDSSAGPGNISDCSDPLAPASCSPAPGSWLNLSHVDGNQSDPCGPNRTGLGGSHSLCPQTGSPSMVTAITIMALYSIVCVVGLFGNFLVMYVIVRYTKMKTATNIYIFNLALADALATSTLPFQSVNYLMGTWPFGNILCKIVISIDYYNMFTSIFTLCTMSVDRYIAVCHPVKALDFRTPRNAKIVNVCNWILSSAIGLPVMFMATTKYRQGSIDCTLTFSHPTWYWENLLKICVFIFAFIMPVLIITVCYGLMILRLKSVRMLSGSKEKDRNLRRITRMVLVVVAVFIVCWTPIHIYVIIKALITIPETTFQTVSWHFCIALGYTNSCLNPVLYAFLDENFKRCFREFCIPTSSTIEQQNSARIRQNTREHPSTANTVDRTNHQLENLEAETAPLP
# protocol details: in vivo
# Set-up: species or system CF-1 male mice
# applied conditions: sc; mouse writhing test; […]; s.c. 20 min before acetic acid; read-out: AD50 (the source's name)

molecule: C[C@H]1CN(C[C@@H](CC2CCCCC2)NC(=O)CCCC(=O)O)CC[C@@]1(C)c1cccc(O)c1 [Example 46D]
assay system: opioid receptor (Mus musculus, UniProt P42866)
ED50: 6.5 mg/kg

Moving on to another molecule below.
Problem: Specify reported ED50 for the molecule shown: CC(C)COC(=O)CCCC(=O)N[C@@H](CC1CCCCC1)CN1CC[C@@](C)(c2cccc(O)c2)[C@@H](C)C1 [Example 56]
Solution: > 40 mg/kg

====

# Tested on: peripheral opioid receptors
# protocol details: mouse diarrhea test: precipitated diarrhea in morphine-maintained mice (peripheral opioid activity)
# Format: in vivo
# applied conditions: mouse, in vivo
Where a name gives a salt, the structure may show the parent alone.
readout kind: Ratio (ratio of AD50 to ED50)
Please reply with the number alone, leaving off any unit.

Answered examples (2):
compound: CCOC(=O)CC(=O)N[C@H](Cc1ccccc1)CN1CC[C@](C)(c2cccc(O)c2)[C@H](C)C1 [Example 12, hydrochloride]
readout kind: Ratio (ratio of AD50 to ED50)
measured number: 100

compound: C[C@H]1CN(CCN(C(=O)CCCC(=O)O)c2ccccc2)CC[C@@]1(C)c1cccc(O)c1 (relative stereo) [Example 20, monohydrate]
readout kind: Ratio (ratio of AD50 to ED50)
measured number: 35

Problem: Specify reported Ratio (ratio of AD50 to ED50) for the compound shown: C[C@H]1CN(CC(Cc2ccccc2)NC(=O)CCCC(=O)O)CC[C@@]1(C)c1cccc(O)c1 (relative stereo) [Example 15, monohydrate]
Solution: 50
